Measured Test H disease control rating values are reported for all entries that follow.
test system: Puccinia recondita f. sp. tritici; experiment: Test H: wheat leaf rust, test suspension sprayed after inoculation of wheat seedlings, visual disease rating; assay type: in vivo; details: 200 ppm; 100 = 100% disease control, 0 = no control relative to controls
Please give a number only; it is taken to be in %.

What does the record list as Test H disease control rating for COc1cc(F)c(-c2c(Br)nc(Cl)n2-c2ccc(OC)nc2)c(F)c1 [compound 710] ?
99

Now consider COc1cc(F)c(-c2c(Cl)nc(Br)n2Cc2ccc(Cl)nc2)c(F)c1 [compound 670] and answer again.
0

Entry to check: COc1cc(F)c(-c2c(Cl)nc(Cl)n2-c2ccc(C)nc2)c(F)c1 [compound 553]
100

Another compound to look at: Cc1nc(Cl)c(-c2ccc(Cl)c(F)c2)n1-c1ccc(F)cc1Cl [compound 421]
0

* * *

Quick reference: Test G disease control rating of the listed items.
test system: Septoria tritici; experiment: Test G: wheat leaf blotch on wheat seedlings, sprayed the day before inoculation, visual disease rating; type: in vivo; conditions: 40 ppm (marked *); 100 = 100% disease control, 0 = no control
Marks after values point to notes of the source that are not given here.

Solved entries:
compound: Fc1ccc(-n2c(Cl)nc(Cl)c2-c2ccc(F)cc2Cl)cc1 [compound 183]
Test G disease control rating: 85* %
--
compound: COc1cc(F)c(-n2cnc(Br)c2-c2ccc(Cl)cc2)c(F)c1 [compound 173]
Test G disease control rating: 90* %

Now consider the entry below.
Entry under review: Fc1ccc(F)c(-c2c(Br)nc(Cl)n2-c2ccc(Cl)cc2)c1Cl [compound 385] . Reported Test G disease control rating?
95* %

* * *

system: Septoria nodorum; test: Test F: wheat glume blotch on wheat seedlings, sprayed the day before inoculation, visual disease rating; format: in vivo; details: 200 ppm; 100 = 100% disease control, 0 = no control
Mark each entry label 1 if its Test F disease control rating sits below 80%, and label 0 for all others.

Study these solved cases before continuing.
smiles input: COc1cc(F)c(-c2c(Cl)ncn2Cc2ccc(Cl)cc2)c(F)c1
group: label 0
--
smiles input: Fc1ccc(SCCl)c(F)c1-c1c(Cl)ncn1-c1ccc(Cl)cc1
group: label 1

Dear colleague, could you confirm whether Test F disease control rating of Cc1nc(Cl)c(-c2c(F)cccc2F)n1-c1ccc(Cl)c(F)c1 falls below 80%? Thanks.
label 0

Next: Cc1nc(Cl)c(-c2ccc(F)cc2Cl)n1-c1ccc(F)cc1
label 0

Then this molecule: Cn1nc(Br)c(-c2c(F)cc(F)cc2F)c1-c1ccc(Cl)cc1
label 1

* * *

Catalogue of compounds with associated Test G disease control rating
tested on: Septoria tritici; test: Test G: wheat leaf blotch on wheat seedlings, sprayed the day before inoculation, visual disease rating; type: in vivo; details: 200 ppm; 100 = 100% disease control, 0 = no control relative to controls
Only the number, expressed in %, is required.

compound: Fc1cc(-n2c(Cl)nc(Cl)c2-c2c(F)cncc2F)ccc1Cl [compound 593]
value unit: %
Test G disease control rating: 96

compound: COc1ccc(-c2c(Cl)nc(Br)n2-c2ccc(Cl)cc2)c(F)c1 [compound 110]
value unit: %
Test G disease control rating: 95

compound: Fc1cccc(F)c1-c1c(Cl)nc(Br)n1-c1ccc(Cl)nc1 [compound 711]
value unit: %
Test G disease control rating: 99

compound: Cc1c(CCl)sc(-c2cnc(Cl)n2-c2ccc(Cl)cc2)c1Cl [compound 451]
value unit: %
Test G disease control rating: 82

compound: Fc1ccc(-n2c(Cl)nc(Cl)c2-c2ccc(Cl)c(F)c2)c(Cl)c1 [compound 302]
value unit: %
Test G disease control rating: 94

compound: Fc1ccc(-n2c(Cl)nc(Cl)c2-c2c(F)ccc(F)c2F)cc1 [compound 129]
value unit: %
Test G disease control rating: 89

compound: Cc1nn(C)c(-c2ccc(Cl)c(F)c2)c1-c1c(F)cc(F)cc1F [compound 104]
value unit: %
Test G disease control rating: 32

compound: COc1cc(F)c(-c2c(Br)nc(Br)n2-c2ccc(C)nc2)c(F)c1 [compound 554]
value unit: %
Test G disease control rating: 99

Which Test G disease control rating reading was recorded for the compound COc1cc(F)c(-c2c(Cl)nc(Cl)n2-c2cccc(OC(F)F)c2)c(F)c1 [compound 565] ?
96

Query Fc1cc(F)c(-c2c(Cl)ncn2-c2cccc(OC(F)F)c2)c(F)c1 [compound 584] next
98

For Cc1nc(Cl)c(-c2c(F)ccc(Br)c2F)n1-c1ccc(Cl)cc1 [compound 91] then?
99

Now the compound CN(C)c1ncn(Cc2ccc(Cl)cc2)c1-c1c(F)cccc1F [compound 99]
25

And for Cc1nn(C)c(-c2c(F)cc(F)cc2F)c1-c1ccc(Cl)cc1 [compound 69] ?
25

* * *

Tested on: Septoria nodorum
Assay: Test F: wheat glume blotch on wheat seedlings, sprayed the day before inoculation, visual disease rating
Format: in vivo
Settings: 200 ppm; 100 = 100% disease control, 0 = no control
Source text: General protocol for preparing test suspensions for Tests A-J: The test compounds were first dissolved in acetone in an amount equal to 3% of the final volume and then suspended at the desired concentration (in ppm) in acetone and purified water (50/50 mix) containing 250 ppm of the surfactant Trem® 014 (polyhydric alcohol esters). […]
measurement kind: Test F disease control rating
Report the figure along with its unit, number first.

For orientation, consider the following solved cases.
molecule: Cc1ccc(-n2cnc(Cl)c2-c2ccc(F)cc2Cl)cc1
measurement kind: Test F disease control rating
result: 0%

molecule: Cc1nc(Cl)c(-c2c(F)ccc(F)c2F)n1Cc1ccc(Cl)cc1
measurement kind: Test F disease control rating
result: 0%

molecule: Cc1nc(Cl)c(-c2ccc(F)cc2Cl)n1-c1ccc(Cl)c(F)c1
measurement kind: Test F disease control rating
result: 98%

molecule: COc1cc(F)c(-c2c(N(C)C)ncn2Cc2ccc(Cl)cc2)c(F)c1 [compound 265]
measurement kind: Test F disease control rating
result: 60%

molecule: COc1cc(F)c(-c2c(N(C)C)ncn2Cc2ccc(Cl)cc2)c(F)c1 [compound 269]
measurement kind: Test F disease control rating
result: 87%

molecule: Fc1ccc(-n2c(Cl)nc(Cl)c2-c2c(F)ccc(F)c2Cl)cc1
measurement kind: Test F disease control rating
result: 0%

molecule: Cc1ccc(-n2c(Cl)nc(Cl)c2-c2ccc(F)cc2Cl)cc1
measurement kind: Test F disease control rating
result: 0%

molecule: Cc1ccc(-n2c(C)nc(Cl)c2-c2c(F)cccc2Cl)cc1
measurement kind: Test F disease control rating
result: 0%

Now examine the next entry.
Look up Test F disease control rating for this molecule: COc1cc(F)c(-c2c(Cl)nc(C)n2-c2ccc(C)cc2)c(F)c1
99%

* * *

tested on: Puccinia recondita f. sp. tritici; assay: Test H: wheat leaf rust, test suspension sprayed after inoculation of wheat seedlings, visual disease rating; format: in vivo; details: 200 ppm; 100 = 100% disease control, 0 = no control relative to controls
measurement kind: Test H disease control rating (%)
All answers are understood in %, so give the number only.

Look over these answered cases.
molecule: Cc1nc(Cl)c(-c2c(F)cc(F)cc2F)n1-c1cccc(F)c1 [compound 370]
test system: Puccinia recondita f. sp. tritici
measurement kind: Test H disease control rating
readout number: 100

molecule: COc1ccc(F)c(-c2c(Br)nc(Cl)n2-c2ccc(F)cc2)c1F [compound 472]
test system: Puccinia recondita f. sp. tritici
measurement kind: Test H disease control rating
readout number: 80

molecule: COc1cc(F)c(-c2c(Cl)nc(Cl)n2-c2ccc(NC(C)=O)nc2)c(F)c1 [compound 673]
test system: Puccinia recondita f. sp. tritici
measurement kind: Test H disease control rating
readout number: 9

molecule: COc1ncccc1-n1c(Cl)nc(Cl)c1-c1c(F)cccc1F [compound 616]
test system: Puccinia recondita f. sp. tritici
measurement kind: Test H disease control rating
readout number: 0

molecule: Fc1cc(-n2c(Cl)nc(CCl)c2-c2cccnc2Cl)ccc1Cl [compound 359]
test system: Puccinia recondita f. sp. tritici
measurement kind: Test H disease control rating
readout number: 0

molecule: COc1ccc(F)c(-c2c(Cl)nc(Cl)n2-c2ccc(C)cc2)c1F [compound 310]
test system: Puccinia recondita f. sp. tritici
measurement kind: Test H disease control rating
readout number: 61

Observed Test H disease control rating on Puccinia recondita f. sp. tritici for Cc1nc(Br)n(-c2ccc(F)cc2Cl)c1-c1ccc(Cl)c(F)c1 [compound 325] , please.
0

Similarly, COc1ccc(-n2c(Br)nc(C)c2-c2c(F)cccc2F)cn1 [compound 719] ?
99

Proceed to Cc1nc(C)n(-c2ccc(Cl)cc2)c1-c1c(F)cc(F)cc1F [compound 45]
99

Also check Cc1ccc(-n2c(Cl)nc(Cl)c2-c2c(F)cccc2F)nc1 [compound 577]
97

Try this molecule next: CCc1cccc(-n2c(Br)nc(Cl)c2-c2c(F)ccc(OC)c2F)c1 [compound 398]
0

How about this molecule: COc1cc(F)c(-c2c(Cl)nc(Cl)n2-c2cncc(F)c2)c(F)c1 [compound 728]
100

Now consider Fc1ccc(-n2cnc(Br)c2-c2c(F)ccc(F)c2F)cc1 [compound 332] and answer again.
9

Then COc1ccc(Cl)c(-c2c(Cl)nc(Br)n2-c2ccc(Cl)cc2)c1F [compound 512] ?
40
